Data origin: the RNAGym collection of RNA variant scans (doi:10.1126/science.aae0568)

B1: tRNA (parent)
chain: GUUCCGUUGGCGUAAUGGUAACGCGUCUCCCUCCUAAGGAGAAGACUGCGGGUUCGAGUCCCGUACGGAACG

Variants of: B1
Assay overview: yeast fitness relative to wild type (ratio to wild type); higher = fitter; tRNA-Arg(CCU), competitive growth, 37 C, YPD
Variants at the floor of the assay were thinned out.
Recorded yeast fitness values for a group of variants are listed next.

- Record sequence: "GUUCCGUUGGCGUAAUGGUAACGCGUCUCCCUCCUAAGGAGAAGACUGCGGGUUUCAGUCCCGUACGGAACG"
  Value kind: "yeast fitness"
  Result: 0.593
- Record sequence: "GUUCCGUUGGCGUAAUGGUAACGCGUCUACCUCCUAAGGAGAAGACUGCGGGUUCGAGUCCCGUACGGACCG"
  Value kind: "yeast fitness"
  Result: 0.635
- Record sequence: "GUUCCGUUGGCGUAAUGGUUACGUGUCUCCCUCCUAAGGAGAGGACUGCGGGUUCGAGACCCGUACGGAACG"
  Value kind: "yeast fitness"
  Result: "≤ 0.5"
- Record sequence: "GUUCCGUUGGCGUAACGGUAACGGGUCUCCCUCCUAAGGAGAAAACUGCGGGUUCGAGUUCCGUACCGAACG"
  Value kind: "yeast fitness"
  Result: "≤ 0.5"
- Record sequence: "GUUCCCUUGGCGUAAUGGUAACGCGUCUCCCUCCUAAGGAGCAGACUGUGGGUUCGAGUCCCGUACGGAACG"
  Value kind: "yeast fitness"
  Result: "≤ 0.5"
- Record sequence: "GUUCCGUUCGCGUAAUGGUAACGCGUCCCCCUCCUAAGGAGUAGACUGCGGGUUCGAGGCCCGUACGGAACG"
  Value kind: "yeast fitness"
  Result: "≤ 0.5"
- Record sequence: "GUUCCGUUGGCGUAAUGGUAUCGCGUCUCUCUCCUAAGGAGAAGACUGCGGGUUCGAGUCCCGUGGGGAACG"
  Value kind: "yeast fitness"
  Result: 0.638
- Record sequence: "GUUCCGUUGGCGUAAUAGUACCGCGUCUGCCUCCUAAGGAGAAGACUGCGGGUUCGAGUCCCGUACGGAUCG"
  Value kind: "yeast fitness"
  Result: "≤ 0.5"

Request the reported yeast fitness associated with GUUCCGUUGGCGUAAUGGUAACGCAUCUCCCUCGUAAGGAGAAGAUUGCGGGUACGAGUCCCGUACGGAACG
≤ 0.5

Can you check GUUCCGUUGGAGUAAUGGUAACGCGUCACCCUCCUAAGGAGAAGACUGCGGGUUCGAGUCGGGUACGGAACG next?
0.556

Can you check GUUCCGUUGGUGUAAUGGUAACCCGUCUCCGUCCUAAGGAGAAGACUGCGGGUUCGAGUGCCGUUCGGAACG next?
≤ 0.5

Can you check GUUCCGUUGGUGUAAUGGUAACGCGUCUCCCUCCUAAGGAGAAGACUGCGGGUUCGAGUUCUGUACGGAACG next?
≤ 0.5

Can you check GUUCCGUUGGCGUAAUGGUAACGCGUCCCCCUCCUAAGGAGCAGACUGCGGGUUUGAGUCCCGUACGCAACG next?
≤ 0.5

Can you check GUUCCGUUGGAGUAAUGGUAGCGCGUCUCCCUCCUAAGGAGAAGACUGCGGGUUGGAGUCCAGUACGGAACG next?
≤ 0.5

Can you check GUUCCGUCGGCGUAAUGGUAACGCGUCUCCCUCCUAAGGAGAAGAUUGCGGAUUCGAGUCCCGUACGGAACG next?
≤ 0.5

Can you check GUUCCGUUGGCGAAAUGGUAACGUGUCUCCCUCCUAAGGAGAAGACUGCGGGUUGGAGUCCCGUACGGAACG next?
0.537

Can you check GUUCCGUUGGGGUAAUGGUAACGCGUCUCACUCCAAAGGAGAAGACUGCGGGUUCGAGUCCCGUACGGAACG next?
≤ 0.5
